Cited source for all entries: PubChem BioAssay AID2551

Target: Nuclear receptor ROR-gamma (Mus musculus)
Assay: qHTS for inhibitors of ROR gamma transcriptional activity; further: nearly all actives have a fitted effect of over 60% in size
Conditions: Drosophila S2 Gal4-RORgamma UAS-luciferase reporter, 20 h; series mostly up to 53.6 µM
The whole screen tested about 310,000 compounds, of which about 17,000 (5.5%) were called active. Not shown: some 11% with an inconclusive outcome. The call rests on the fitted dose curve; in most records, active means well fitted inhibition curve with a large enough effect; inconclusive means small, poorly fitted or top-dose-only effect, or effect the other way; inactive means no such curve, though single readings can be large or run the other way. The sample as a whole holds a higher share of actives than the screen did.
Write down one outcome, taken from active, inactive

Consider the worked cases shown below.
Cc1ccc(OCC(=O)Nc2ccc(N3CCN(C(=O)c4ccco4)CC3)cc2)c(C)c1; inactive
CCCCNC(=S)NNC(=O)c1cc(C)on1; active
CN(C)c1cccc(C(=O)N2CCC(n3nccc3NC(=O)C3CCOC3)CC2)c1 (stereo not given); inactive
COc1ccc(C(CNCC(=O)Nc2ccccc2F)N(C)C)cc1 (stereo not given); inactive

Q) Dear all, I need the recorded test outcome for `COc1cc(OC)cc(C(=O)NCCSCc2ccc(Cl)cc2)c1` , thank you.
A) inactive

Q) Dear all, I need the recorded test outcome for Cc1c(C(=O)N2CCCC2)c(S(=O)(=O)NCC(C)c2ccccc2)c(C)n1C (stereo not given) , thank you.
A) inactive

Q) Dear all, I need the recorded test outcome for `COc1ccccc1OCCn1c(SCC(N)=O)nc2ccccc21` , thank you.
A) inactive
